pIC50 values by entry
# Tested On: DRB1*01:01 (Homo sapiens, UniProt P01903+P01911, A100R/D57E/F55L/F60I/F76Y/I96L/L162R/M171V/P40L/Q125E/R42F/V115G/Y59C)
# Method Summary: biochemical
pIC50: −log10 of the molar value. Where a SMILES comes first, the peptide text is derived from it.
Measure: pIC50

>>> reading("CC[C@H](C)[C@H](NC(=O)[C@H](CCC(=O)O)NC(=O)[C@@H](N)CCCCN)C(=O)N[C@H](C(=O)N[C@H](C(=O)N[C@@H](C)C(=O)N[C@H](C(=O)N[C@@H](CO)C(=O)N[C@@H](CCCNC(=N)N)C(=O)N[C@H](C(=O)N[C@@H](CC(C)C)C(=O)N[C@@H](CO)C(=O)N[C@@H](Cc1ccc(O)cc1)C(=O)N[C@@H](Cc1ccc(O)cc1)C(=O)N[C@@H](CCCCN)C(=O)O)[C@@H](C)O)[C@@H](C)O)C(C)C)[C@@H](C)O [Mem_34] (H-KEITVATSRTLSYYK-OH)")
8.03
>>> reading("CC(C)C[C@H](NC(=O)[C@H](CC(N)=O)NC(=O)[C@H](CCCCN)NC(=O)[C@@H](NC(=O)[C@H](CCCNC(=N)N)NC(=O)[C@H](CO)NC(=O)[C@H](Cc1ccc(O)cc1)NC(=O)[C@@H](NC(=O)[C@H](Cc1ccc(O)cc1)NC(=O)[C@H](Cc1ccccc1)NC(=O)[C@H](CO)NC(=O)[C@@H]1CCCN1C(=O)[C@H](CCCCN)NC(=O)[C@@H](NC(=O)[C@@H](N)CC(C)C)C(C)C)C(C)C)C(C)C)C(=O)O [Env_11] (H-LVKPSFYVYSRVKNL-OH)")
7.89

====

# Tested On: HLA-DRB1*11:01 (Homo sapiens, UniProt P01903+P01911, A100R/A169T/A87E/I96F/K41T/L162R/M171V/P40S/Q125H/Q178H/Q39Y/Q99D/R42S/S66Y/T262R/V115G/W38E)
# Method Summary: biochemical
Where a SMILES comes first, the peptide text is derived from it.
Measure: IC50 (nM)

>>> reading("CC(C)C[C@H](NC(=O)[C@H](CC(N)=O)NC(=O)[C@H](CCCCN)NC(=O)[C@@H](NC(=O)[C@H](CCCNC(=N)N)NC(=O)[C@H](CO)NC(=O)[C@H](Cc1ccc(O)cc1)NC(=O)[C@@H](NC(=O)[C@H](Cc1ccc(O)cc1)NC(=O)[C@H](Cc1ccccc1)NC(=O)[C@H](CO)NC(=O)[C@@H]1CCCN1C(=O)[C@H](CCCCN)NC(=O)[C@@H](NC(=O)[C@@H](N)CC(C)C)C(C)C)C(C)C)C(C)C)C(=O)O [Env_11] (H-LVKPSFYVYSRVKNL-OH)")
14
>>> reading("CC[C@H](C)[C@H](NC(=O)CNC(=O)[C@H](CC(=O)O)NC(=O)[C@H](CCCCN)NC(=O)[C@H](CC(N)=O)NC(=O)[C@H](C)NC(=O)CNC(=O)[C@H](Cc1ccc(O)cc1)NC(=O)[C@@H]1CCCN1C(=O)[C@@H](N)CC(C)C)C(=O)N[C@H](C(=O)N[C@@H](Cc1c[nH]c2ccccc12)C(=O)N[C@H](C(=O)N[C@@H](C)C(=O)N[C@H](C(=O)O)[C@@H](C)O)C(C)C)[C@@H](C)CC [Ncl_25] (H-LPYGANKDGIIWVAT-OH)")
13900
>>> reading("CC(C)C[C@H](NC(=O)[C@H](CCC(N)=O)NC(=O)[C@H](CC(N)=O)NC(=O)[C@H](CC(C)C)NC(=O)[C@H](CCCNC(=N)N)NC(=O)[C@H](CC(=O)O)NC(=O)[C@H](CC(C)C)NC(=O)[C@H](CC(C)C)NC(=O)[C@H](CC(C)C)NC(=O)[C@H](CC(C)C)NC(=O)[C@H](C)NC(=O)[C@H](CC(C)C)NC(=O)[C@H](C)NC(=O)[C@H](C)NC(=O)[C@@H](N)CC(=O)O)C(=O)O [Ncl_44] (H-DAALALLLLDRLNQL-OH)")
317

====

# Tested On: DRB1*07:01 (Homo sapiens, UniProt P01903+P01911, A100R/A102G/A103Q/D57E/D86V/E43K/F76Y/K127E/L162R/M171V/P40G/Q125H/Q99D/R33Q/R42Y/R54Q/S133A/S66F/T210M/V115G/Y107V/Y59L/Y89S)
# Method Summary: biochemical
pIC50: −log10 of the molar value. Where a SMILES comes first, the peptide text is derived from it.
Measure: pIC50

>>> reading("CC[C@H](C)[C@H](NC(=O)[C@H](Cc1c[nH]cn1)NC(=O)[C@H](CCCCN)NC(=O)[C@H](CC(N)=O)NC(=O)[C@H](CC(C)C)NC(=O)[C@H](CC(C)C)NC(=O)[C@@H](NC(=O)[C@@H](NC(=O)[C@H](CCC(N)=O)NC(=O)[C@H](CC(=O)O)NC(=O)[C@H](CCCCN)NC(=O)[C@@H](N)Cc1ccccc1)C(C)C)[C@@H](C)CC)C(=O)N[C@@H](CC(=O)O)C(=O)N[C@@H](C)C(=O)N[C@@H](Cc1ccc(O)cc1)C(=O)O [Ncl_70] (H-FKDQVILLNKHIDAY-OH)")
6.21

====

# Tested On: DRB1*01:01 (Homo sapiens, UniProt P01903+P01911, A100R/D57E/F55L/F60I/F76Y/I96L/L162R/M171V/P40L/Q125E/R42F/V115G/Y59C)
# Method Summary: biochemical
Where a SMILES comes first, the peptide text is derived from it.
Measure: IC50

>>> reading("CC[C@H](C)[C@H](NC(=O)CNC(=O)[C@H](CC(=O)O)NC(=O)[C@H](CCCCN)NC(=O)[C@@H](N)CC(N)=O)C(=O)N[C@H](C(=O)N[C@@H](Cc1c[nH]c2ccccc12)C(=O)N[C@H](C(=O)N[C@@H](C)C(=O)N[C@H](C(=O)N[C@@H](CCC(=O)O)C(=O)NCC(=O)N[C@@H](C)C(=O)N[C@@H](CC(C)C)C(=O)N[C@@H](CC(N)=O)C(=O)O)[C@@H](C)O)C(C)C)[C@@H](C)CC [Ncl_26] (H-NKDGIIWVATEGALN-OH)")
"42 nM"

====

Each record here notes measured pIC50.
# Tested On: DRB5*01:01 (Homo sapiens, UniProt P01903+Q30154)
# Method Summary: biochemical
pIC50: −log10 of the molar value. Where a SMILES comes first, the peptide text is derived from it.
Measure: pIC50

>>> reading("CC[C@H](C)[C@H](NC(=O)[C@H](CCCNC(=N)N)NC(=O)[C@H](CC(C)C)NC(=O)[C@H](Cc1c[nH]cn1)NC(=O)CNC(=O)[C@@H](N)CCCNC(=N)N)C(=O)N[C@@H](C)C(=O)NCC(=O)N[C@@H](Cc1c[nH]cn1)C(=O)N[C@@H](Cc1c[nH]cn1)C(=O)N[C@@H](CC(C)C)C(=O)NCC(=O)N[C@@H](CCCNC(=N)N)C(=O)N[C@@H](CS)C(=O)N[C@@H](CC(=O)O)C(=O)O [Mem_30] (H-RGHLRIAGHHLGRCD-OH)")
7.62
>>> reading("CC[C@H](C)[C@H](NC(=O)[C@H](CCC(N)=O)NC(=O)[C@H](CC(=O)O)NC(=O)[C@@H](N)CC(=O)O)C(=O)NCC(=O)N[C@@H](Cc1ccc(O)cc1)C(=O)N[C@@H](Cc1ccc(O)cc1)C(=O)N[C@@H](CCCNC(=N)N)C(=O)N[C@@H](CCCNC(=N)N)C(=O)N[C@@H](C)C(=O)N[C@H](C(=O)N[C@@H](CCCNC(=N)N)C(=O)N[C@@H](CCCNC(=N)N)C(=O)N[C@H](C(=O)N[C@@H](CCCNC(=N)N)C(=O)O)[C@@H](C)CC)[C@@H](C)O [Ncl_P17] (H-DDQIGYYRRATRRIR-OH)")
8.57

====

# Tested On: DRB1*13:02 (Homo sapiens, UniProt P01903+P01911, A100E/A169T/K41T/L162R/M171V/P40S/Q125H/Q178H/Q39Y/Q99D/R42S/S66N/T262R/V115G/W38E/Y61H)
# Sequence (P01903 26-254 limits assumed, other chains not shown): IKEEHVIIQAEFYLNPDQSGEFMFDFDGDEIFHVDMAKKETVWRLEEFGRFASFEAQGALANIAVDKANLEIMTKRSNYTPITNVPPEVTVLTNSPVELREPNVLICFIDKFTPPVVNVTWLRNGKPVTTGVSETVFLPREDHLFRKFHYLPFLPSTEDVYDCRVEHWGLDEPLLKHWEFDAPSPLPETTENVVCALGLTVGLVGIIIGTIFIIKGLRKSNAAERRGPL
# Method Summary: biochemical
pIC50: −log10 of the molar value. Where a SMILES comes first, the peptide text is derived from it.
Measure: pIC50

>>> reading("CC[C@H](C)[C@H](NC(=O)[C@H](CCC(=O)O)NC(=O)[C@@H](N)CCCCN)C(=O)N[C@H](C(=O)N[C@H](C(=O)N[C@@H](C)C(=O)N[C@H](C(=O)N[C@@H](CO)C(=O)N[C@@H](CCCNC(=N)N)C(=O)N[C@H](C(=O)N[C@@H](CC(C)C)C(=O)N[C@@H](CO)C(=O)N[C@@H](Cc1ccc(O)cc1)C(=O)N[C@@H](Cc1ccc(O)cc1)C(=O)N[C@@H](CCCCN)C(=O)O)[C@@H](C)O)[C@@H](C)O)C(C)C)[C@@H](C)O [Mem_34] (H-KEITVATSRTLSYYK-OH)")
6.69
